Test system: K. pneumoniae MP-546
Assay: MIC determination by CLSI broth dilution, K. pneumoniae MP-546
Type: cell-based
Conditions: Klebsiella pneumoniae, MP546, CLSI broth dilution; strain MP-546
Readout Name: MIC

Molecule	Result
CO[C@]1(C)C[C@@H](C)CN[C@H](CN)COC(=O)[C@H](C)C(=O)[C@H](C)[C@H]1O[C@@H]1OC(C)CC(N(C)C)C1O (some centres unmarked) [Compound 221]	> 32 µg/mL
CO[C@]1(C)C[C@@H](C)CN(C)[C@@H](CC2CCN(C(=O)C3CC3)CC2)COC(=O)C(C)(C)C(=O)[C@H](C)[C@H]1O[C@@H]1O[C@H](C)C[C@H](N(C)C)[C@H]1O [Compound 44]	> 32 µg/mL
CCCCCCCN1CCC(C[C@@H]2COC(=O)[C@@](C)(Cc3ccccc3)C(=O)[C@H](C)[C@@H](O[C@@H]3O[C@H](C)C[C@H](N(C)C)[C@H]3O)[C@](C)(OC)C[C@@H](C)CN2C)CC1 [Compound 171]	4 to 32 µg/mL
C=C[C@@H]1COC(=O)C(C)(C)C(=O)[C@H](C)[C@@H](O[C@@H]2O[C@H](C)C[C@H](N(C)C)[C@H]2O)[C@](C)(OC)C[C@@H](C)CN1C [Compound 14]	4 to 32 µg/mL
CCN(C)CCC[C@H]1COC(=O)C(C)(C)C(=O)[C@H](C)[C@@H](O[C@@H]2O[C@H](C)C[C@H](N(C)C)[C@H]2O)[C@](C)(OC)C[C@@H](C)CN1C [Compound 20]	< 4 µg/mL

====

In this section, each of the compounds is paired with its reported MIC.
Tested on: P. aeruginosa MP-3
Assay: MIC determination by CLSI broth dilution, P. aeruginosa MP-3
Assay type: cell-based
Conditions: Pseudomonas aeruginosa, MP3, strain MP-3

Molecular String	MIC
CCC(=O)N1CCN(C[C@H]2[C@H](C)OC(=O)C(C)(C)C(=O)[C@H](C)[C@@H](O[C@@H]3O[C@H](C)C[C@H](N(C)C)[C@H]3O)[C@](C)(OC)C[C@@H](C)CN2C)CC1	> 32 µg/mL
CCCN1CCC(C[C@H]2N(C)C[C@H](C)C[C@@](C)(OC)[C@H](O[C@@H]3O[C@H](C)C[C@H](N(C)C)[C@H]3O)[C@@H](C)C(=O)C(C)(C)C(=O)OC2(C)C)CC1	> 32 µg/mL
CO[C@]1(C)C[C@@H](C)CN[C@H](Cn2cc(-c3cccc(N)n3)nn2)COC(=O)[C@H](C)C(=O)[C@H](C)[C@H]1O[C@@H]1O[C@H](C)C[C@H](N(C)C)[C@H]1O	> 32 µg/mL

====

In this section we review reported MIC values for a set of compounds.
System: K. pneumoniae MP-546
Assay: MIC determination by CLSI broth dilution, K. pneumoniae MP-546
Assay type: cell-based
Conditions: Klebsiella pneumoniae, MP546, CLSI broth dilution; strain MP-546

Molecular String	MIC
CO[C@]1(C)C[C@@H](C)CN(C)[C@H](CC2CCN(C(=O)C3CC3)CC2)COC(=O)C(C)(C)C(=O)[C@H](C)[C@H]1O[C@@H]1O[C@H](C)C[C@H](N(C)C)[C@H]1O	4 to 32 µg/mL
CO[C@]1(C)C[C@@H](C)CN(C)[C@H](CC2CN(CC(C)C)C2)COC(=O)C(C)(C)C(=O)[C@H](C)[C@H]1O[C@@H]1O[C@H](C)C[C@H](N(C)C)[C@H]1O	> 32 µg/mL
CCCN1CCC(C[C@@H]2N(C)C[C@H](C)C[C@@](C)(OC)[C@H](O[C@@H]3O[C@H](C)C[C@H](N(C)C)[C@H]3O)[C@@H](C)C(=O)C(C)(C)C(=O)OC2(C)C)CC1	4 to 32 µg/mL
CCN(CC)CCC[C@H]1COC(=O)C(C)(C)C(=O)[C@H](C)[C@@H](O[C@@H]2O[C@H](C)C[C@H](N(C)C)[C@H]2O)[C@](C)(OC)C[C@@H](C)CN1C	< 4 µg/mL
CCCN1CCC(C[C@@H]2COC(=O)C(C)(C)C(=O)[C@H](C)[C@@H](O[C@@H]3O[C@H](C)C[C@H](N(C)C)[C@H]3O)[C@](C)(OC)C[C@@H](C)CN2CC)CC1	< 4 µg/mL

====

Test system: E. coli MP-4
Assay: MIC determination by CLSI broth dilution, E. coli MP-4
Format: cell-based
Details: Escherichia coli, MP4, CLSI broth dilution; strain MP-4
Reported MIC values are given for each entry in this list.

Molecular String	MIC
CO[C@]1(C)C[C@@H](C)CN(C)[C@@H](C(=O)N2CCN(CC(F)(F)F)CC2)[C@H](C)OC(=O)C(C)(C)C(=O)[C@H](C)[C@H]1O[C@@H]1O[C@H](C)C[C@H](N(C)C)[C@H]1O	> 32 µg/mL
CCN1CCN(C[C@H]2COC(=O)C(C)(C)C(=O)[C@H](C)[C@@H](O[C@@H]3O[C@H](C)C[C@H](N(C)C)[C@H]3O)[C@](C)(OC)C[C@@H](C)CN2C)CC1	< 4 µg/mL
CCCN1C[C@H](C)C[C@@](C)(OC)[C@H](O[C@@H]2O[C@H](C)C[C@H](N(C)C)[C@H]2O)[C@@H](C)C(=O)C(C)(C)C(=O)OC[C@H]1CC1CCN(C)CC1	< 4 µg/mL

====

Test system: E. coli MP-4
Assay: MIC determination by CLSI broth dilution, E. coli MP-4
Assay type: cell-based
Settings: Escherichia coli, MP4, CLSI broth dilution; strain MP-4
This section presents compounds with their documented MIC values.

Molecular String	MIC
CO[C@]1(C)C[C@@H](C)CN(C)[C@@H](CCCO)COC(=O)C(C)(C)C(=O)[C@H](C)[C@H]1O[C@@H]1O[C@H](C)C[C@H](N(C)C)[C@H]1O	< 4 µg/mL
CO[C@]1(C)C[C@@H](C)CN(C)[C@@H](CN2CCN(S(=O)(=O)c3ccc(C)cc3)CC2)[C@H](C)OC(=O)C(C)(C)C(=O)[C@H](C)[C@H]1O[C@@H]1O[C@H](C)C[C@H](N(C)C)[C@H]1O	> 32 µg/mL
CN[C@H]1C[C@H](C[C@]2(C)COC(=O)C(C)(C)C(=O)[C@H](C)[C@@H](O[C@@H]3O[C@H](C)C[C@H](N(C)C)[C@H]3O)[C@](C)(OC)C[C@@H](C)CN2C)C1	4 to 32 µg/mL
CO[C@]1(C)C[C@@H](C)CN(C)[C@@H](CC2CCN(C(=O)C3CC3)CC2)COC(=O)C(C)(C)C(=O)[C@H](C)[C@H]1O[C@@H]1O[C@H](C)C[C@H](N(C)C)[C@H]1O	> 32 µg/mL
CNC[C@H]1COC(=O)C(C)(C)C(=O)[C@H](C)[C@@H](O[C@@H]2O[C@H](C)C[C@H](N(C)C)[C@H]2O)[C@](C)(OC)C[C@@H](C)CN1	4 to 32 µg/mL
CO[C@]1(C)C[C@@H](C)CN(C)[C@@H](C(=O)N2CCNCC2)[C@H](C)OC(=O)C(C)(C)C(=O)[C@H](C)[C@H]1O[C@@H]1O[C@H](C)C[C@H](N(C)C)[C@H]1O	> 32 µg/mL
CO[C@]1(C)C[C@@H](C)CN(C)[C@H]([C@](C)(O)CCN2CCCC2)COC(=O)C(C)(C)C(=O)[C@H](C)[C@H]1O[C@@H]1O[C@H](C)C[C@H](N(C)C)[C@H]1O	4 to 32 µg/mL
CCN1C[C@H](C)C[C@@](C)(OC)[C@H](O[C@@H]2O[C@H](C)C[C@H](N(C)C)[C@H]2O)[C@@H](C)C(=O)C(C)(C)C(=O)OC[C@H]1[C@H](O)CCN(C)CCO	< 4 µg/mL
CO[C@]1(C)C[C@@H](C)CN(C)[C@H](C[C@H]2C[C@H](N(C)CC3CC3)C2)COC(=O)C(C)(C)C(=O)[C@H](C)[C@H]1O[C@@H]1O[C@H](C)C[C@H](N(C)C)[C@H]1O	< 4 µg/mL
CO[C@]1(C)C[C@@H](C)CN(C)[C@@H]([C@H](O)C2CCN(CC3CCCCC3)CC2)COC(=O)C(C)(C)C(=O)[C@H](C)[C@H]1O[C@@H]1O[C@H](C)C[C@H](N(C)C)[C@H]1O	< 4 µg/mL

====

Tested on: E. coli MP-4
Assay: MIC determination by CLSI broth dilution, E. coli MP-4
Format: cell-based
Conditions: Escherichia coli, MP4, CLSI broth dilution; strain MP-4

Molecular String	MIC
CO[C@]1(C)C[C@@H](C)CN(C)[C@@H](CN2CCN(S(C)(=O)=O)CC2)[C@H](C)OC(=O)C(C)(C)C(=O)[C@H](C)[C@H]1O[C@@H]1O[C@H](C)C[C@H](N(C)C)[C@H]1O	> 32 µg/mL
CO[C@]1(C)C[C@@H](C)CN(C)[C@H]([C@](C)(O)CCN(C)CCO)COC(=O)C(C)(C)C(=O)[C@H](C)[C@H]1O[C@@H]1O[C@H](C)C[C@H](N(C)C)[C@H]1O	4 to 32 µg/mL
CCC(CC)CN1CCC(C[C@@H]2COC(=O)C(C)(C)C(=O)[C@H](C)[C@@H](O[C@@H]3O[C@H](C)C[C@H](N(C)C)[C@H]3O)[C@](C)(OC)C[C@@H](C)CN2C)CC1	< 4 µg/mL
CO[C@]1(C)C[C@@H](C)CN(C)[C@@H](CN2CCN(C(C)=O)CC2)[C@H](C)OC(=O)C(C)(C)C(=O)[C@H](C)[C@H]1O[C@@H]1O[C@H](C)C[C@H](N(C)C)[C@H]1O	> 32 µg/mL
CO[C@]1(C)C[C@@H](C)CN(C)[C@H]([C@H](O)[C@@H](O)CO)COC(=O)C(C)(C)C(=O)[C@H](C)[C@H]1O[C@@H]1O[C@H](C)C[C@H](N(C)C)[C@H]1O	4 to 32 µg/mL
